Data origin: patent US12539292B2

Field: Dmax. Provide a value for each of the compounds that follow.
biological target: BRM (Homo sapiens, UniProt P51531); construct: In-Cell Western Screen of BRM Degradation in SW1573 Cells; endogenous in cells; host or cells: SW1573; test: In-cell Western screen of BRM degradation in SW1573 cells (Dmax and DC50); format: cell-based; conditions: BRM degradation, SW1573 cells; tested at the top concentration of between 0.3 and 10 μM; read-out: Dmax (%) (% degraded)
Sequence (P51531 whole entry): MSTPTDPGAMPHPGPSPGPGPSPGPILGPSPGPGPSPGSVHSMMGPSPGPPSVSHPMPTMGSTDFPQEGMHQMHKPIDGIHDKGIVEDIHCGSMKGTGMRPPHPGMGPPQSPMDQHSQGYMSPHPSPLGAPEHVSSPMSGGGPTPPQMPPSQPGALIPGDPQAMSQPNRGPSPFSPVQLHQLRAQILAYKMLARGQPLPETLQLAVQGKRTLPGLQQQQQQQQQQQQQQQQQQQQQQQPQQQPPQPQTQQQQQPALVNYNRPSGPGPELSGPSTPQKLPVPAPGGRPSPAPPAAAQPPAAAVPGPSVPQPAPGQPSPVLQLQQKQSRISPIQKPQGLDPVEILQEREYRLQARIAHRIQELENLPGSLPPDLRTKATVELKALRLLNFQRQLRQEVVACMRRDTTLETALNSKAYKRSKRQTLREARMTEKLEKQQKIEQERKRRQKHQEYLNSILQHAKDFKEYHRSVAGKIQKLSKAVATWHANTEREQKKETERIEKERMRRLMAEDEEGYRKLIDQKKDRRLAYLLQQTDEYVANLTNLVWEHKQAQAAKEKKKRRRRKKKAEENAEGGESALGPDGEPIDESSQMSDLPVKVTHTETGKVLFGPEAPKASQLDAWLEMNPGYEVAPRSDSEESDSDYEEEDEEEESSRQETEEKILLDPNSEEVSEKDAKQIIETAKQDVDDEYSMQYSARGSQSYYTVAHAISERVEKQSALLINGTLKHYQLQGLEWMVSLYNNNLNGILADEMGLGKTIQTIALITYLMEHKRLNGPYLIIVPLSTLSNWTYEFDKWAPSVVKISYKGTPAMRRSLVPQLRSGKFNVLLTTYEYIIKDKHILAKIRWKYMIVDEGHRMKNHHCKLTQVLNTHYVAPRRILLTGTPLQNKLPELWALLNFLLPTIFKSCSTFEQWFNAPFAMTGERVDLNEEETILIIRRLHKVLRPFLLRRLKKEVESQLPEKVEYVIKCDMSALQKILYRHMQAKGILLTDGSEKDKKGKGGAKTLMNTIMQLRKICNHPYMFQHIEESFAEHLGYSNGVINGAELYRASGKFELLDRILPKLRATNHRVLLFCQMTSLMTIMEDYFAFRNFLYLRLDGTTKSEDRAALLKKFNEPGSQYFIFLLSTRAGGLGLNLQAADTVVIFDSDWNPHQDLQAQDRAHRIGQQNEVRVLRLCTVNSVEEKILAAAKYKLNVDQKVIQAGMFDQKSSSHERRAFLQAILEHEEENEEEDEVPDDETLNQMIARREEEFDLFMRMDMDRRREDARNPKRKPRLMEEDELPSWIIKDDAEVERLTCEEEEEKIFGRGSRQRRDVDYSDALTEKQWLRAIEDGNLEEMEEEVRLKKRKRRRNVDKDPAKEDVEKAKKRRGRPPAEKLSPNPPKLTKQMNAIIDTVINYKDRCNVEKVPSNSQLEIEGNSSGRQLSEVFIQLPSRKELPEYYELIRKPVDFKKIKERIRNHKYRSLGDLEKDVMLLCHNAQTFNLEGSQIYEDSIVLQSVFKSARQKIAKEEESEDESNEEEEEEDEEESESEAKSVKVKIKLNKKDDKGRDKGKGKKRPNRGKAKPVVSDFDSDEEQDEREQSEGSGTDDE

Data request: Supply recorded Dmax for Cc1ncsc1-c1ccc([C@H](C)NC(=O)[C@@H]2C[C@@H](O)CN2C(=O)C(c2cc(OCCN3CCN(CCO[C@H]4C[C@H](OCCN5CCOC6(CCN(c7cc(-c8ccccc8O)nnc7N)CC6)C5)C4)CC3)no2)C(C)C)cc1 (some centres unmarked) [compound 192] here.
Data returned: > 75%

Data request: Supply recorded Dmax for Cc1ncsc1-c1ccc([C@H](CN(C)C)NC(=O)[C@@H]2C[C@@H](O)CN2C(=O)[C@@H](c2cc(OCCN3CCN(CCOc4cc(N5C6CCC5CN(c5cc(-c7ccccc7O)nnc5N)C6)ccn4)CC3)no2)C(C)C)cc1 [compound 281] here.
Data returned: > 75%

---

Molecular target: BRM (Homo sapiens)
Construct: In-Cell Western Screen of BRM Degradation in SW1573 Cells; endogenous in cells; host or cells: SW1573
Test: In-cell Western screen of BRM degradation in SW1573 cells (Dmax and DC50)
Type: cell-based
Details: BRM degradation, SW1573 cells; read-out: DC50
Protocol: In-Cell Western Screen of BRM Degradation in SW1573 Cells […] To read each plate TBS-T was removed, and each plate was inverted tapped on a paper towel. The plates were read on the LI-COR Odyssey with default intensity settings of 5.0 for both channels. LI-COR images were analyzed with the in-cell Western feature of Image Studio Lite.
assay_metric: DC50

Data request: Supply recorded DC50 for `Cc1ncsc1-c1ccc([C@H](C)NC(=O)[C@@H]2C[C@@H](O)CN2C(=O)[C@@H](c2cc(OCCN3CCN(CCOCCn4cc(-c5cc(-c6ccccc6O)nnc5N)cn4)CC3)no2)C(C)C)cc1` here.
Data returned: 2.5 to 10 nM

Data request: Supply recorded DC50 for `Cc1ncsc1-c1ccc([C@H](CN)NC(=O)[C@@H]2C[C@@H](O)CN2C(=O)[C@H](c2cc(OCCN3CCN(CCOc4cc(N5C6CCC5CN(c5cc(-c7ccccc7O)nnc5N)C6)ccn4)CC3)no2)C(C)C)cc1` here.
Data returned: > 30 nM

Data request: Supply recorded DC50 for `Cc1ncsc1-c1ccc([C@@H](CCO)NC(=O)[C@@H]2C[C@@H](O)CN2C(=O)[C@@H](c2cc(N3CCC(CN4CCC(O[C@H]5C[C@H](Oc6cc(N7C8CCC7CN(c7cc(-c9ccccc9O)nnc7N)C8)ccn6)C5)CC4)CC3)no2)C(C)C)cc1` here.
Data returned: 2.5 to 10 nM

Data request: Supply recorded DC50 for `Cc1ncsc1-c1ccc([C@H](C)NC(=O)[C@@H]2C[C@@H](O)CN2C(=O)[C@@H](c2cc(N3CCC(N4CCC(O[C@H]5C[C@H](Oc6cc(N7C8CCC7CN(c7cc(-c9ccccc9O)nnc7N)C8)ccn6)C5)CC4)CC3)no2)C(C)C)cc1` here.
Data returned: < 2.5 nM

Data request: Supply recorded DC50 for `Cc1ncsc1-c1ccc(C2(NC(=O)[C@@H]3C[C@@H](O)CN3C(=O)[C@@H](c3cc(OCCN4CCN(CCOc5cc(N6C7CCC6CN(c6cc(-c8ccccc8O)nnc6N)C7)ccn5)CC4)no3)C(C)C)CN(C)C2)cc1` here.
Data returned: 2.5 to 10 nM

Data request: Supply recorded DC50 for `Cc1ncsc1-c1ccc([C@H](C)NC(=O)[C@@H]2C[C@@H](O)CN2C(=O)[C@@H](c2cc(OC/C=C/c3ccc(O[C@H]4C[C@H](Oc5cc(N6C7CCC6CN(c6cc(-c8ccccc8O)nnc6N)C7)ccn5)C4)cn3)no2)C(C)C)cc1` here.
Data returned: < 2.5 nM

Data request: Supply recorded DC50 for Cc1ncsc1-c1ccc([C@H](C)NC(=O)[C@@H]2C[C@@H](O)CN2C(=O)C(c2cc(OCCn3cc(C(C)n4cc(-c5cc(-c6ccccc6O)nnc5N)cn4)ccc3=O)no2)C(C)C)cc1 (stereo in doubt) here.
Data returned: > 30 nM

Data request: Supply recorded DC50 for `Cc1cnsc1-c1ccc([C@H](C)NC(=O)[C@@H]2C[C@@H](O)CN2C(=O)[C@H](c2cc(OCCN3CCN(CCOc4cc(N5C6CCC5CN(c5cc(-c7ccccc7O)nnc5N)C6)ccn4)CC3)no2)C(C)C)cc1` here.
Data returned: > 30 nM

Data request: Supply recorded DC50 for `Cc1ncsc1-c1ccc(CNC(=O)[C@@H]2C[C@@H](O)CN2C(=O)[C@H](C(C)C)N2Cc3ccccc3C2=O)c(OCCOCCOCCOCCOCCOCCn2cc(-c3cc(-c4ccccc4O)nnc3N)cn2)c1` here.
Data returned: > 30 nM

Data request: Supply recorded DC50 for `Cc1ncsc1-c1ccc([C@H](COCC2CCOCC2)NC(=O)[C@@H]2C[C@@H](O)CN2C(=O)[C@H](c2cc(OCCN3CCN(CCOc4cc(N5C6CCC5CN(c5cc(-c7ccccc7O)nnc5N)C6)ccn4)CC3)no2)C(C)C)cc1` here.
Data returned: > 30 nM

Data request: Supply recorded DC50 for `Cc1ncsc1-c1ccc([C@H](C)NC(=O)[C@@H]2C[C@@H](O)CN2C(=O)[C@H](c2onc(OCCN3CCC(O[C@H]4C[C@H](Oc5cc(N6C7CCC6CN(c6cc(-c8ccccc8O)nnc6N)C7)ccn5)C4)CC3)c2Cl)C(C)C)cn1` here.
Data returned: > 30 nM

Data request: Supply recorded DC50 for Cc1ncsc1-c1ccc([C@H](C)NC(=O)[C@@H]2C[C@@H](O)CN2C(=O)[C@@H](NC(=O)COCCCc2ccc(C(C)n3cc(-c4cc(-c5ccccc5O)nnc4N)cn3)cn2)C(C)(C)C)cc1 (stereo partly shown) here.
Data returned: 10 to 30 nM

Data request: Supply recorded DC50 for `Cc1ncsc1-c1ccc([C@@H](COCC2CCOCC2)NC(=O)[C@@H]2C[C@@H](O)CN2C(=O)[C@@H](c2cc(OCCN3CCN(CCOc4cc(N5C6CCC5CN(c5cc(-c7ccccc7O)nnc5N)C6)ccn4)CC3)no2)C(C)C)cc1` here.
Data returned: < 2.5 nM

Data request: Supply recorded DC50 for `Cc1ncsc1-c1ccc([C@H](C)NC(=O)[C@@H]2C[C@@H](O)CN2C(=O)[C@@H](c2cc(N3CCC4(CC3)CN(CC3CCN(C[C@H]5C[C@H](Oc6cc(N7C8CCC7CN(c7cc(-c9ccccc9O)nnc7N)C8)ccn6)C5)CC3)C4)no2)C(C)C)cc1` here.
Data returned: < 2.5 nM

Data request: Supply recorded DC50 for `Cc1ncsc1-c1ccc([C@H](C)NC(=O)[C@@H]2C[C@@H](O)CN2C(=O)[C@@H](c2cc(OCC#Cc3ccc(O[C@H]4C[C@H](Oc5cc(N6C7CCC6CN(c6cc(-c8ccccc8O)nnc6N)C7)ccn5)C4)cn3)no2)C(C)C)cc1` here.
Data returned: < 2.5 nM

Data request: Supply recorded DC50 for `Cc1ncsc1-c1ccc([C@H](CCO)NC(=O)[C@@H]2C[C@@H](O)CN2C(=O)[C@@H](c2cc(N3CCC(CN4CCC(O[C@H]5C[C@H](Oc6cc(N7C8CCC7CN(c7cc(-c9ccccc9O)nnc7N)C8)ccn6)C5)CC4)CC3)no2)C(C)C)cc1` here.
Data returned: < 2.5 nM

---

Field: DC50. Provide a value for each of the compounds that follow.
biological target: BRM (Homo sapiens); construct: In-Cell Western Screen of BRM Degradation in SW1573 Cells; endogenous in cells; host or cells: SW1573; assay: In-cell Western screen of BRM degradation in SW1573 cells (Dmax and DC50); assay type: cell-based; settings: BRM degradation, SW1573 cells; read-out: DC50

Data request: Supply recorded DC50 for Cc1ncsc1-c1ccc(CNC(=O)[C@@H]2C[C@@H](O)CN2C(=O)[C@@H](NC(=O)COCCOCCOCCOCCOCCOCCOCCOc2cc(N3C4CCC3CN(c3cc(-c5ccccc5O)nnc3N)C4)ccn2)C(C)(C)C)cc1 [compound 10] here.
Data returned: 2.5 to 10 nM

Data request: Supply recorded DC50 for Cc1ncsc1-c1ccc([C@H](C)NC(=O)[C@@H]2C[C@@H](O)CN2C(=O)[C@H](c2cc(OCCC#Cc3ccc(OC4CC(Oc5cc(N6C7CC[C@@H]6CN(c6cc(-c8ccccc8O)nnc6N)C7)ccn5)C4)cn3)no2)C(C)C)cc1 (stereo partly shown) [compound 226] here.
Data returned: 10 to 30 nM

Data request: Supply recorded DC50 for CC(C)[C@@H](C(=O)N1C[C@H](O)C[C@H]1C(=O)N[C@@H](C)c1ccc(-n2ccnn2)cc1)c1cc(OCCN2CCN(CCOc3cc(N4C5CCC4CN(c4cc(-c6ccccc6O)nnc4N)C5)ccn3)CC2)no1 [compound 293] here.
Data returned: 2.5 to 10 nM

Data request: Supply recorded DC50 for Cc1ncsc1-c1ccc([C@H](C)NC(=O)[C@@H]2C[C@@H](O)CN2C(=O)[C@H](c2cc(OCCn3cc(C(C)n4cc(-c5cc(-c6ccccc6O)nnc5N)cn4)ccc3=O)no2)C(C)C)cc1 (stereo partly shown) [compound 157] here.
Data returned: 10 to 30 nM
